- System: SK-MEL-5
- Protocol details: NCI tumour cell line growth inhibition, 48 h
The source made the active and inactive calls. Rule as the data show it: active = GI50 up to about 1.1 µM and inactive = higher.
Return exactly one item of True for active, False for inactive

Per the records of this test, what outcome belongs to NC(=O)c1nnsc1NC=O ?
False

Per the records of this test, what outcome belongs to CC(=O)c1c(CO[N+](=O)[O-])[n+]([O-])c2ccccc2[n+]1[O-] ?
False

Per the records of this test, what outcome belongs to COC(=O)C(=O)C(C(=O)C(=O)Nc1ccccc1OC)c1nc2ccc([N+](=O)[O-])cc2nc1O (stereo unspecified) ?
False

Per the records of this test, what outcome belongs to COc1cc2c(c3c1c(=O)c1ccccc1n3C)C=CC1(CCCCC1)O2 ?
False

Per the records of this test, what outcome belongs to COc1ccc(-c2csc(=[N+]3CCCCC3)s2)cc1 ?
False

Per the records of this test, what outcome belongs to COc1ccc2[nH]c3c([N+](=O)[O-])ccc(Cl)c3c(=O)c2c1 ?
False

Per the records of this test, what outcome belongs to CC(=O)N(C)c1cc(NCc2ccccc2)ccc1OCc1ccccc1 ?
False

Per the records of this test, what outcome belongs to CC(OC(=O)NCn1cc(-c2ccccc2)nn1)c1ccccc1 (stereo unspecified) ?
False

Per the records of this test, what outcome belongs to NC(=O)Nc1n[nH]c(-c2ccccc2)n1 ?
False

Per the records of this test, what outcome belongs to Cc1nc(O)c2ncn(CCO)c2n1 ?
False

Per the records of this test, what outcome belongs to COc1ccccc1NC(=S)N/N=C1\C(=O)Nc2ccccc21 ?
False

Per the records of this test, what outcome belongs to COc1cc2nc(-c3cccs3)nc(N3CCN(c4ccccc4C(F)(F)F)CC3)c2cc1OC ?
False

Per the records of this test, what outcome belongs to COc1ccc(-c2nc(N(C)C)c3ccccc3n2)cc1 ?
False

Per the records of this test, what outcome belongs to Cc1nc2nn(Cc3ccccc3)cc2c(=O)o1 ?
False

Per the records of this test, what outcome belongs to COC(=O)C(N)CCCC(N)C(=O)NC(C)C(=O)NC(CCC(=O)NCCNCCNc1c2ccccc2nc2cccc([N+](=O)[O-])c12)C(N)=O (stereo unspecified) ?
False

Per the records of this test, what outcome belongs to CN1C(=O)CC2(C)c3cc(C=O)ccc3N(C)C12 (stereo unspecified) ?
False

Per the records of this test, what outcome belongs to Cc1onc(-c2c(F)cccc2Cl)c1C(=O)N[C@@H]1C(=O)N2[C@@H]1SC(C)(C)[C@@H]2C(=O)O ?
False

Per the records of this test, what outcome belongs to CC(C)CCC1(O)O[C@H]2C[C@H]3[C@@H]4CCC5CC(=O)C=C[C@]5(C)[C@H]4CC[C@]3(C)[C@H]2[C@@H]1C (stereo partly specified) ?
False

Per the records of this test, what outcome belongs to CC(C)(Oc1ccc(C(=O)c2ccc(Cl)cc2)cc1Cl)C(=O)Nc1c(Cl)cccc1Cl ?
False

Per the records of this test, what outcome belongs to CC(=O)C(=N\Nc1ccc(Cl)cc1)/C(C)=N/c1ccc(C)cc1 ?
False

Per the records of this test, what outcome belongs to N=C(N)n1nc2c(c1O)CCCC2 ?
False

Per the records of this test, what outcome belongs to COC(=O)c1ccc2c(O)c(O)ccc2c1 ?
False

Per the records of this test, what outcome belongs to CC(=O)OCC1OC(n2cccnc2=O)C(OC(C)=O)C1OC(C)=O (stereo unspecified) ?
False

Per the records of this test, what outcome belongs to CC1C(=O)O[C@H]2C1CC[C@@]1(C)[C@H](O)CC[C@@]13C[C@]2(O)OO3 (stereo partly specified) ?
False

Per the records of this test, what outcome belongs to NC1CC(=O)c2csc(Br)c21 (stereo unspecified) ?
False

Per the records of this test, what outcome belongs to CCOC(=O)/C(=C\NC(=S)Nc1ccc(OCC)cc1)C(=O)c1ccccc1 ?
False

Per the records of this test, what outcome belongs to COc1ccccc1N1C(=O)CSC1c1cccc(Oc2ccccc2)c1 (stereo unspecified) ?
False

Per the records of this test, what outcome belongs to CCC(C#N)(c1ccccc1)N(CCc1ccccc1)C(=O)c1ccccc1 (stereo unspecified) ?
False

Per the records of this test, what outcome belongs to CC(=O)O[C@H]1C[C@H]2C(=S)Nc3ccccc3C(=S)N2C1 ?
False

Per the records of this test, what outcome belongs to CC(C)(C)NNC(=O)/C(=C/c1ccc(Oc2ccc(Cl)c(Cl)c2)cc1)NC(=O)c1ccccc1 ?
False

Per the records of this test, what outcome belongs to CCCCCCCCCCCCCCCCCCNc1nc(=O)n(C2CC(O)C(COP(=O)(O)OCC(COP(=O)(O)OC3C(CO)OC(n4ccc(N)nc4=O)C3O)OCCCCCCCCCCCCCCCCCC)O2)cc1F (stereo unspecified) ?
False

Per the records of this test, what outcome belongs to O=C(O)c1ccc2c(c1)C(=O)N(c1ccc(S(=O)(=O)c3ccc(N4C(=O)c5ccc(C(=O)O)cc5C4=O)cc3)cc1)C2=O ?
False

Per the records of this test, what outcome belongs to COC1OCC(O)C(NC(=O)N(C)N=O)C1O (stereo unspecified) ?
False

Per the records of this test, what outcome belongs to N#Cc1c(N2CCOCC2)[nH]c(=O)c(C(c2c(Cl)cccc2Cl)c2c(O)c(C#N)c(N3CCOCC3)[nH]c2=O)c1O ?
False

Per the records of this test, what outcome belongs to CCn1c(=O)nc2n(-c3ccc(SC)cc3)c3ccccc3nc-2c1=O ?
False

Per the records of this test, what outcome belongs to O=C(CC(=O)c1ccccc1NC1=Cc2ccccc2C(=O)C1=O)C(=O)NC1=C(Cl)C(=O)c2ccccc2C1=O ?
True

Per the records of this test, what outcome belongs to Cc1ccc(C)c2c1C1CCCCC3(OCCCO3)C21O (stereo unspecified) ?
False

Per the records of this test, what outcome belongs to O=C1CNCCCN2CCN(CCCNCC(=O)Nc3ccc(cc3)S(=O)(=O)c3ccc(cc3)NC(=O)CNCCCN3CCN(CCCNCC(=O)Nc4ccc(cc4)S(=O)(=O)c4ccc(cc4)N1)CC3)CC2 ?
False

Per the records of this test, what outcome belongs to CC1CC#CCOC(=O)CCCC1=O (stereo unspecified) ?
False

Per the records of this test, what outcome belongs to O=C1COc2cccnc2N1CCCCO ?
False

Per the records of this test, what outcome belongs to CC(=O)OC12c3ccccc3-c3ccccc3C1C(C(=O)O)C2(Cl)C(=O)O (stereo unspecified) ?
False

All figures here come from ChEMBL document CHEMBL1201862.
